Target: T1, recombinant fibronectin domain ED-B (His)6 (human, UniProt P02751 1266-1356)
T1 construct: domain: ED-B; Produced by standard procedures; immobilised on ELISA plates or on the BIAcore chip; also called recombinant ED-B; human ED-B
Experiment: SPR (BIAcore), ED-B immobilised on chip, Fab in flow
Flag rule - kon less than 500000 M⁻¹ s⁻¹ flags 1 (yes); the remaining entries get 0 (no).

MOR02611 (Fab, V domains shown, HuCAL GOLD Fab, VH1B/L2) VH: QVQLVQSGAEVKKPGASVKVSCKASGYTFSGSYMHWVRQAPGQGLEWMGIINPASGKTLYAQKFQGRVTMTRDTSISTAYMELSSLRSEDTAVYYCARGLYYRFASWGQGTLVTVSS VL: DIALTQPASVSGSPGQSITISCTGTSSDIGGYHSVSWYQQHPGKAPKLMIYRSNRPSGVSNRFSGSKSGNTASLTISGLQAEDEADYYCAAATGGWVFGGGTNLTVLG ... 1 (yes)
MOR02618 (Fab, V domains shown, HuCAL GOLD Fab, VH3/L3) VH: QVQLVESGGGLVQPGGSLRLSCAASGFTFNNYGMTWVRQAPGKGLEWVSSIYGYGSNTYYADSVKGRFTISRDNSKNTLYLQMNSLRAEDTAVYYCARNYWVFAYWGQGTLVTVSS VL: DIELTQPPSVSVAPGQTARISCSGDNIPGKSVHWYQQKPGQAPVLVIYGKMNRPSGIPERFSGSNSGNTATLTISGTQAEDEADYYCQSYDNFNDSVVFGGGTKLTVLG ... 1 (yes)
MOR02616 (Fab, V domains shown, HuCAL GOLD Fab, VH3/K3) VH: QVQLVESGGGLVQPGGSLRLSCAASGFTFRNNAMHWVRQAPGKGLEWVSAISSSGSGTYYADSVKGRFTISRDNSKNTLYLQMNSLRAEDTAVYYCARVIVLFDYWGQGTLVTVSS VL: DIVLTQSPATLSLSPGERATLSCRASQNVRSNLAWYQQKPGQAPRLLIYGASNRATGVPARFSGSGSGTDFTLTISSLEPEDFAVYYCLQKYSIPFTFGQGTKVEIKR ... 0 (no)
MOR02614 (Fab, V domains shown, HuCAL GOLD Fab, VH3/L1) VH: QVQLVESGGGLVQPGGSLRLSCAASGFTFNNNWMHWVRQAPGKGLEWVSFISGSGSHTYYADSVKGRFTISRDNSKNTLYLQMNSLRAEDTAVYYCARAYDVWGQGTLVTVSS VL: DIVLTQPPSVSGAPGQRVTISCSGSSSNIGFNYVNWYQQLPGTAPKLLIYGNSKRPSGVPDRFSGSKSGTSASLAITGLQSEDEADYYCAMFSPEGVFGGGTKLTVLG ... 1 (yes)
MOR02613 (Fab, V domains shown, HuCAL GOLD Fab, VH3/L2) VH: QVQLVESGGGLVQPGGSLRLSCAASGFTFSNYTMTWVRQAPGKGLEWVSFIIGSGSNTSYADSVKGRFTISRDNSKNTLYLQMNSLRAEDTAVYYCARYVNGFDIWGQGTLVTVSS VL: DIALTQPASVSGSPGQSITISCTGTSSDVGVYYYVSWYQQHPGKAPKLMIYYDSKRPSGVSNRFSGSKSGNTASLTISGLQAEDEADYYCQTYAKKDYSLVFGGGTKLTVLG ... 0 (no)
MOR02715 (Fab, V domains shown, HuCAL GOLD Fab, VH3/L2) VH: QVQLVESGGGLVQPGGSLRLSCAASGFTFSSYGMHWVRQAPGKGLEWVSVISSSGSYIYYADSVKGRFTISRDNSKNTLYLQMNSLRAEDTAVYYCARNKVGFDVWGQGTLVTVSS VL: DIALTQPASVSGSPGQSITISCTGTSSDGGGYNTVSWYQQHPGKAPKLMIYYVHKRPSGVSNRFSGSKSGNTASLTISGLQAEDEADYYCQAWDNQGMKYVFGGGTKLTVLG ... 0 (no)
MOR02619 (Fab, V domains shown, HuCAL GOLD Fab, VH4/L1) VH: QVQLQESGPGLVKPGETLSLTCTVSGGSISSYYWSWIRQAPGKGLEWIGIGHWGSTQYNPSLKGRVTISVDTSKNQFSLKLSSVTAEDTAVYYCARFFDVWGQGTLVTVSS VL: DIVLTQPPSVSGAPGQRVTISCSGSSSNIGSNTVRWYQQLPGTAPKLLIYSNNKRPSGVPDRFSGSKSGTSASLAITGLQSEDEADYYCQSWDGASTGVFGGGTKLTVLG ... 0 (no)

These data points were gathered from patent US20060115428A1.
